Tested on: K4 kissing-loop RNA reporter
Assay: apparent KD of K4 kissing-loop reporter; higher = weaker reporter binding
Details: Eterna round: R107; input ligand: none
Would you mind telling me the reported apparent KD of K4 kissing-loop reporter of each entry?
Could you give me the number in nM? Just the number is fine.

Field: apparent KD of K4 kissing-loop reporter (K4 kissing-loop RNA reporter). Entry: AUGUAUGAAUUAGGAUAUCGUUAGCCUUGCAUAUAUAUGAUAAAUGGAUAUGUCGUAGUGAUGUUACGAGAAGGAGUGUGGAGUA [KL-XFMN-B5]
38.9

Kindly state the measured apparent KD of K4 kissing-loop reporter obtained for CUGAUGCUGAUGCGGCGGCCGGUGGUCGUGCGAGGACCGGUACGGCCGCCACUCGCGCGAGUGAUGUUCGCGCGUCGUCGUCGUC [First Shot] with K4 kissing-loop RNA reporter.
114

Lab note: need apparent KD of K4 kissing-loop reporter with K4 kissing-loop RNA reporter for entry AGAAGAUAUCGUGAUACCAGACCGCGGAGAGGCCGGAAGAGGGUAGUGAUGUUGCAUGCAGUCCCUUGGCAGCACUGACAGUAUU [theeternabot_sameState_KL_Theo_B_40] , please look it up.
694

Param readout = apparent KD of K4 kissing-loop reporter; param system = K4 kissing-loop RNA reporter; param query = UAAUAUAAUCUGUCGUUUACAAUAUUUAGUCAGGAUAUCGUAUAUUCGAGAAGGGACACUAUCUAGUGAUGUUAGAUAUUUCUUU [JR_ExcFMNA_Sub014] ; response: value
55.9

What apparent KD of K4 kissing-loop reporter appears in the records for this sequence with K4 kissing-loop RNA reporter? CAGAUCACAGAGUGAUGUUCUGUGUCCGAAGGAGCGCGCUUCGGCGCAGGUAGGUCGCGGAUACAGUUGACGUACCAUCUAGACA [Arg A Ex t3c]
583

So what apparent KD of K4 kissing-loop reporter did UAUACUAGACAAGAGAGAAUUCUCUCAAGAGAGGAUAUCCGAAUUCGGAGAAGGCUCUCUCAGUGAUGUUGGGUAUAGUCUAGAA [AK7 SS FMN A] get with K4 kissing-loop RNA reporter?
323

Which apparent KD of K4 kissing-loop reporter is reported with K4 kissing-loop RNA reporter for this entry: UAACGCCACUAAGAUACCAGACAUACAGAUCGGAUCUCCUAAAGAGAGUGAUGUUCUCUAGUCCCUUGGCAGCUUCUGGACUCCC [theeternabot_sameState_KL_Theo_B_9] ?
406

Param readout = apparent KD of K4 kissing-loop reporter; param system = K4 kissing-loop RNA reporter; param query = CAAUGAGUAUAAGAUGAUAUCAUCACAGAAGGAGCGAGUGAUAACUCAGGUAGGUCGCUGAAUUUAUCGAGUGAUGUUCGAUAGA [whbob_SS_Arginine_A_sa118] ; response: value
199

Give K4 kissing-loop RNA reporter apparent KD of K4 kissing-loop reporter for GUUACGCAUGGAAGGAGCGCAGGCUCAACAAAUAGCUCAGUGAUGUUGAGCAUAUUAAAACUGCAGGUAGGUCGCCAUGUGUAAC [Ex Arginine B K4 23]
657

Entry CGUACGGUUUCUUUCUUUCCGUACGAGUGCCGAGGACCGGUACGGCCGCCACUCGCUACAGCCUAGUGAUGUUAGGCAUUUCUUU , system K4 kissing-loop RNA reporter: what apparent KD of K4 kissing-loop reporter was measured?
105

Test system K4 kissing-loop RNA reporter; read-out apparent KD of K4 kissing-loop reporter; what value for AAAAUAAGCCAGUGAUGUUGGUAGCCAGAUACCAGCGACGAAAGUCGCCCUUGGCAGCUGUGGACGUACAAAAUAAGUACGUCCU ?
928

// lookup apparent KD of K4 kissing-loop reporter | system=K4 kissing-loop RNA reporter | key= AAGCAGUCACUCAAAGCCAUCGAAGAUGGUCGAGGACCGGUACGGCCGCCACUCGGAGUGAUGUUCCGAAGACUGCAAAAUAAAA
424

Lab note: need apparent KD of K4 kissing-loop reporter with K4 kissing-loop RNA reporter for entry AUAGGAGUGAUGUUCCUUAGUCUCUCCGAUACCAGUAUGGAAACAUACCCUUGGCAGCGGUAGACCGCAGAUUAGGAAACUAGUC [Theophylline A K4 3] , please look it up.
785

Which apparent KD of K4 kissing-loop reporter is reported with K4 kissing-loop RNA reporter for this entry: CGGCUCACGCAAGGAUAUCGCAGUGAGUACUCUGGAAGAAUAAAGCUAGUGAUGUUAGGUUAGAAGCGAGAAGGUGCGGCCGUAU [theeternabot_sameState_KL_FMN_B_30] ?
128

Please provide the recorded apparent KD of K4 kissing-loop reporter for UGUAUGUGAUGUGAUACCAGUGAAGAGCCAGUGAUGUUGGUAGAACUGGUAUAUAAAUAACACCCUUGGCAGCACAGUCACGUAC [whbob_Ex_Theo_B_sa100] , tested on K4 kissing-loop RNA reporter.
297

Identify the measured apparent KD of K4 kissing-loop reporter of AUUCGCUCCACUGAUACCAGUCAUCGAGCAAGAUGCUAAGCCAGUGAUGUUGGCAUGAAUGACCCUUGGCAGCAGUACACUAAGG [Theo B SS t7] for K4 kissing-loop RNA reporter.
75.6

K4 kissing-loop RNA reporter / apparent KD of K4 kissing-loop reporter / UGACUGGACUGAAGGAGCGAGGACGGUCAUAGACCGAAAUCAGUGAUGUUGAAAGAUAAACCUCAGGUAGGUCGCAGUCUAGUCU [ArgBS 1 #SwitchBubble #StaticStem] : value?
790

Checklist item: apparent KD of K4 kissing-loop reporter tested on K4 kissing-loop RNA reporter, entry AUUAAUAUCACGGCCGCCACUGAAUAUUGUUUUUAUAUUUAGAAUAAUUGCCAGUGAUGUUGGAUCAGGACCGGGUGAUUUUAUA [JR_SSTryptoB_Sub008] , value?
727

Param readout= apparent KD of K4 kissing-loop reporter; system= K4 kissing-loop RNA reporter; entry= UGAUACCAGACUGAUACCAGCCACAGAGUCAAAGACUCUGAUAAAGGAACCAGUGAUGUUGGCCCUUGGCAGCAGUCUGGUAUCU [TheoBX 24 #SwitchBubble #StaticStem] ; returns value.
118

Form: Entry = GUAGGAUGAGGAGGAGGAAGAAAUACUGAAGGAGCGCAAAGAAAUGCAGGUAGGUCGCGGUAAAGAAGUAUAGUGAUGUUAUAUA [SSArgA.C] | System = K4 kissing-loop RNA reporter | apparent KD of K4 kissing-loop reporter = ____
406

What is its apparent KD of K4 kissing-loop reporter for K4 kissing-loop RNA reporter? Entry: UGAUUUAACUGAAGGAGCGGCAAUUGAUAAGUAAAUAUAGUGAUGUUAUAUAAGAUAGAGAGCCAGGUAGGUCGCAGAGGGAGGA [ExArgB.J]
159

Checklist item: apparent KD of K4 kissing-loop reporter tested on K4 kissing-loop RNA reporter, entry GCAGUGAUGUUGCGCAGGUACAGUGGAGUGCGAGGACCGGUACGGCCGCCACUCGUACAGAACUAGCUAAUGUAUGGAUAGGUGA [#11 K4 Tryptophan A Same State] , value?;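 further: bound reporter read as fluorescence of individual clusters on recovered sequencing chips by microscopy, with normalized cluster intensities fitted with a binding model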
368

Identify the measured apparent KD of K4 kissing-loop reporter of AGACUACUGAUAGGAUAUAACAUACUAGCUCGUAUACCAAAGGUAUACGAGCACCUUCUAGUGAUGUUAGAAGGGUCGGUAGUCA [Omei KL FMN B Exc B v3] for K4 kissing-loop RNA reporter.
108

###

System: MS2 coat protein
Experiment: apparent KD of MS2 coat protein; designed switch direction (-1 OFF switch, 1 ON switch): -1; higher = weaker reporter binding
Conditions: Eterna round: R95; input ligand: FMN 200 uM
Criterion: apparent KD of MS2 coat protein meeting or surpassing 0.02 µM. Met: True. Not met: False.

Tell me whether apparent KD of MS2 coat protein is at least 0.02 µM here: UUUAAUUUUUUUUUUUUACAAGCUUUUUGCUCGUCUUAUACAUGAGGAUCACCCAUGUGGGUGAAAAGUAAAUUAUC [JMF 44] (puzzle: Sensor v3, turn-off variant 2)
True

Hi team, for GCCUGAGCAGGAUAUUCAAUAAUUCACAUGAGGAUCACCCAUGUCCAGCGAAAGCUAGGAGGAGAAGGGCUCAGGC [Mat - Exclusion 5 - Eli mod - D86] (puzzle: Exclusion 5) , is the recorded apparent KD of MS2 coat protein at or above 0.02 µM?
False

Assess whether reported apparent KD of MS2 coat protein for GAUUACUGCAAGCUUUGGGACAUGAGGAUCACCCAUGUUCGUCUUAUUGAUCUAGGUACGCUGACGUACCUAGAUCU [JL-sv1-2.28 Brourd mod] (puzzle: Sensor v3, turn-off variant 1) sits at 0.02 µM or higher.
False

Determine whether this sequence has apparent KD of MS2 coat protein no lower than 0.02 µM: GAGGAACAUGAGGAUCACCCAUGUAAGGAUAUGCAAAGAGAGGUAGUAGAAGGAGAAGGCAGAAGGUACAAGGA [JR_Exclu1_Sub074] (puzzle: Exclusion 1)
True

API: above_or_equal(metric=apparent KD of MS2 coat protein, cutoff=0.02 µM) for item CAUACUGAAGUUAGGAUAUUCGAACGUAUACGGAUGGAGAAGGGACAUGAGGAUCACCCAUGUAGUUAGUAAAG [EX-4 Malc #10] (puzzle: Brourd's mod of Exclusion 4)
False

Quick check: does UACUAAAAGGAGGAUAUCGUAUCGGAAACGAUACGAGAAGGCUUAACAUGAGGAUCACCCAUGUUCUUCAAUAA [Mat - Exclusion 6 - Eli Mod - D88] (puzzle: Exclusion 6) have apparent KD of MS2 coat protein greater than or equal to 0.02 µM?
True

Is it the case that UUUAAUUUUUUUUUUUUACAAGCUUUUUGCUCGUCUUAUACAUGAGGAUCACCCAUGUAAGUGGGAAGUAAAUUAUC [JMF 54] (puzzle: Sensor v3, turn-off variant 2) has apparent KD of MS2 coat protein reaching or exceeding 0.02 µM?
True

Decide: is the reported value of apparent KD of MS2 coat protein for GAGGAACAUGAGGAUCACCCAUGUAAGGAUAUGCAAAGAGAGAAAGAAGAAGGAGAAAGCAGAAGGUACAAGGA [JR_Exclu1_Sub073] (puzzle: Exclusion 1) equal to or greater than 0.02 µM?
True

Decide: apparent KD of MS2 coat protein of AGUAGAUCUACGCUUGCGUGGAUCUGCAAUGCAGGUGUUACAUGAGGAUCACCCAUGUCCUCGUUUGCUCGUCUUAU [JL turnoff v2 99.12] (puzzle: Sensor v3, turn-off variant 2) >= 0.02 µM?
True

Does apparent KD of MS2 coat protein meet or surpass 0.02 µM for GGUCAAGAGCAGCUCCGCGCUGCCAUUGACCGCUCAUUUACAUGAGGAUCACCCAUGUUUUUUGCUCGUCUUAUUAC [Somabi] (puzzle: Sensor v3, turn-off variant 2) ?
False

Test whether the sequence GAGAAACAUGAGGAUCACCCAUGUGAGGAUAUGCGUACGUUGUCCGUAGGCGACGUGCGCAGAAGGCGCAAAAG [Mat - Mod of JL D87] (puzzle: Exclusion 1) records apparent KD of MS2 coat protein of 0.02 µM or higher.
True

Has CUAGUCCGAGGAUAUAUUAUGUGAUACAUGAGGAUCACCCAUGUUAUAUGAUGGAUAUUAAUAGAAGGCGGACUAG [Mat - Exclusion 5 - JL mod - D74] (puzzle: Exclusion 5) a recorded apparent KD of MS2 coat protein greater than or equal to 0.02 µM?
True

Is it the case that GUUUGACAUGAGGAUCACCCAUGUGAGGAUAUCGUCUGGUACGUGUUGGCUGGCAUCUCGAGAAGGCGCAUAGG [Exclusion 1 V57] (puzzle: Exclusion 1) has apparent KD of MS2 coat protein reaching or exceeding 0.02 µM?
True

Check if apparent KD of MS2 coat protein >= 0.02 µM (inclusive). Item: CUGAGGUAGCGGUCCUAUGACAUGAGGAUCACCCAUGUGCCUUGCUACAAGCUUUUUGCUCGUUUUAUGAUUCUCGG [JL Atriat mod 10] (puzzle: Sensor v3, turn-off variant 1)
True

Can GGUUGACAUGAGGAUCACCCAUGUGAGGAUAUGCGAGAGAAAAAAGUGAGGAAGAAUAGCAGAAGGCGCUGUCG [salish99-ex1_r3_011] (puzzle: Exclusion 1) be said to have apparent KD of MS2 coat protein at or above 0.02 µM?
True

Check the entry CGUGACUCAGGAUAUCUAUAAUAUCACAUGAGGAUCACCCAUGUCCAGCGAAAGCUGGAGGGAGAAGGGAGUCACG [Fiskers Ex 5 - 35] (puzzle: Exclusion 5) : does apparent KD of MS2 coat protein equal or exceed 0.02 µM?
True

Does the reported apparent KD of MS2 coat protein for UAGGUACAUGAGGAUCACCCAUGUGAGGAUAUAGUUGAAGAUUGCGAGAGGUUGAGGACUAGAAGGCACAGUGG [JR_Exclu1_Sub038] (puzzle: Exclusion 1) fall at or above the 0.02 µM mark?
True

Check this sequence for apparent KD of MS2 coat protein at or above 0.02 µM: UAUUAGCAAGCCAGAUCCCACAUGAGGAUCACCCAUGUGCUCGUCUUAUAAGGUACUGUGACGAAAGUCACGGUACC [Sensor 3, v1 - 93] (puzzle: Sensor v3, turn-off variant 1)
True

Please tell me: is the sequence GAAAAGGUAGGAUAUACGAAAAAAAAGGGUAGAAAAGAAACACAUGAGGAUCACCCAUGUAGAAGGACCAAAAG [salish99_ex2_r3_016] (puzzle: Exclusion 2) at or over 0.02 µM in terms of apparent KD of MS2 coat protein?
True

Measured values drawn from the supplement of paper PMC9170038 for this set.
